Provide the reported IC50 of each item.
- assay target: cytochrome P450 2C9-isoenzyme (Homo sapiens)
- Sequence (P11712 whole entry): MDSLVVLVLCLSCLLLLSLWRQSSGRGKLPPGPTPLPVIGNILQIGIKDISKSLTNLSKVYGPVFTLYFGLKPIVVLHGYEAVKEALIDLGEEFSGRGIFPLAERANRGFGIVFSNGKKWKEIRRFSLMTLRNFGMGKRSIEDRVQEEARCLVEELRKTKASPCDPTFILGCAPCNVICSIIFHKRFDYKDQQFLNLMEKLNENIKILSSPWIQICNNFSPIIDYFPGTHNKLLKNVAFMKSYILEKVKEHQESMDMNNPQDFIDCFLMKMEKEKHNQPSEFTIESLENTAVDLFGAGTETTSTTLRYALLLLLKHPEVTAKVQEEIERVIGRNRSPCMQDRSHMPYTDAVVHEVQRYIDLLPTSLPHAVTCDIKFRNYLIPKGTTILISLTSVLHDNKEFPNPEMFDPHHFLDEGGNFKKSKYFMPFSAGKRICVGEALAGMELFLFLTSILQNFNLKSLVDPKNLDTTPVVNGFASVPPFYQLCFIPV

Query string: Suppose we examine the compound Cc1cc(-c2cc(=O)n(C)cn2)cc(C)c1-c1ccc(F)c2c1CC[C@H]2Nc1ccc([C@H]2C[C@@H]2C(=O)O)cn1 ; what IC50 value has been reported?
Result string: > 50 µM

Query string: What measured IC50 goes with Nc1cc(F)c(-c2ccc(F)c3c2CC[C@H]3Nc2ccc([C@H]3C[C@@H]3C(=O)O)cn2)c(F)c1 ?
Result string: > 50 µM

Query string: Any idea what its IC50 is? The compound is Cc1cc(OCC(C)(C)C#N)cc(C)c1-c1ccc(F)c2c1CC[C@H]2Nc1ccc([C@H]2C[C@@H]2C(=O)O)cn1
Result string: 34 µM

Query string: Bench note: what IC50 did Cc1cc(OCC2(C)COC2)cc(C)c1-c1ccc(F)c2c1CC[C@H]2Nc1ccc([C@H]2C[C@@H]2C(=O)O)cn1 show?
Result string: > 50 µM
